Measured survival of individual entries
System: DeltatarO mutant
Assay: S. aureus survival, RN4220 and DeltatarO strains – OD600, teichoic acid synthesis inhibitors, primary screen (AID 463173)
Settings: S. aureus RN4220 wild type/DeltatarO growth, OD600, 18 h, active compounds read low, screened at 18.75 µg/mL (by protocol)
Out of some 52,000 compounds screened, about 4,300 (8.3%) were called active. The list comes from a sample in which actives are over-represented; it also holds close analogues and randomly drawn compounds.
Give just the numeric value; % need not be written.

| compoundStructureString | survival / % |
| --- | --- |
| Cn1c(=O)n(C)c2cc(N3CCOCC3)c(NC(=O)c3ccccc3Br)cc21 | 82 |

**Query** Notebook entry, DeltatarO mutant assay: survival of O=c1c2sc3ccccc3c2n(Cc2ccc(F)cc2)c(=O)n1Cc1ccco1 = ?
**Result** 79

**Query** Notebook entry, DeltatarO mutant assay: survival of CC(C)CCNC(=O)c1cc(-c2ccc(Br)s2)nc2ccccc12 = ?
**Result** 81

* * *

Test system: DeltatarO mutant
Assay: S. aureus survival, RN4220 and DeltatarO strains – OD600, teichoic acid synthesis inhibitors, primary screen (AID 463173)
Details: S. aureus RN4220 wild type/DeltatarO growth, OD600, 18 h, active compounds read low, screened at 18.75 µg/mL (by protocol)
The campaign covered roughly 52,000 compounds. About 4,300 (8.3%) were called active. What follows is part of a selection rich in actives, with near analogues and random picks from the rest.
Measured survival of individual entries

Reference set, count: 3
| compound | measuredTarget | survival |
| --- | --- | --- |
| CCc1ccc2[nH]c(=O)c(CN(CCO)C(=S)NCc3ccco3)cc2c1 | DeltatarO mutant | 88% (inactive) |
| CCc1ccc2nc(N(Cc3cccnc3)C(C)=O)sc2c1 | DeltatarO mutant | 91% (inactive) |
| CCc1ccccc1Nc1nc2cc(Cl)c(Cl)cc2nc1-n1nc(C)cc1C | DeltatarO mutant | 89% (inactive) |

**Query** Notebook entry, DeltatarO mutant assay: survival of Cc1ccc(-n2ncc3c(N4CCCCCC4)ncnc32)cc1Cl = ?
**Result** 102% (inactive)

**Query** Notebook entry, DeltatarO mutant assay: survival of Cc1cc(C)cc(NC(=O)c2cccc(N3CCCS3(=O)=O)c2)c1 = ?
**Result** 101% (inactive)

**Query** Notebook entry, DeltatarO mutant assay: survival of COc1ccc(OC)c(C2CC(=O)Nc3c2c(=O)[nH]c2nc4ccccc4n32)c1 (configuration not stated) = ?
**Result** 164% (inactive)

**Query** Notebook entry, DeltatarO mutant assay: survival of COc1ccc(N(C)S(=O)(=O)c2ccc3c(c2)n(C)c(=O)c(=O)n3C)cc1 = ?
**Result** 86% (inactive)

**Query** Notebook entry, DeltatarO mutant assay: survival of Cc1cccc(NC(=O)c2c(C)oc3ncn(CC(C)C)c(=O)c23)n1 = ?
**Result** 72% (inactive)

**Query** Notebook entry, DeltatarO mutant assay: survival of COc1cccc(NC(=O)CSc2nnc(COc3ccc(Cl)cc3)o2)c1 = ?
**Result** 57% (active)

**Query** Notebook entry, DeltatarO mutant assay: survival of O=C(CSc1cn(CC(=O)N2CCCC2)c2ccccc12)Nc1ccccc1C(F)(F)F = ?
**Result** 66% (inactive)

**Query** Notebook entry, DeltatarO mutant assay: survival of COc1ccc(CCCc2nnc(SCC(=O)Nc3cccc(F)c3C)o2)cc1 = ?
**Result** 39% (active)

**Query** Notebook entry, DeltatarO mutant assay: survival of CCOC(=O)C(Cc1c[nH]c2ccccc12)NC(=O)COc1ccc(Cl)c(C)c1 (configuration not stated) = ?
**Result** 36% (active)

**Query** Notebook entry, DeltatarO mutant assay: survival of Cc1ccc(NC(=S)N(Cc2ccco2)Cc2cc3cc(C)c(Cl)cc3[nH]c2=O)cc1 = ?
**Result** 82% (inactive)

**Query** Notebook entry, DeltatarO mutant assay: survival of COc1ccc(OCC(=O)NC(Cc2c[nH]c3ccccc23)C(=O)O)cc1 (configuration not stated) = ?
**Result** 60% (inactive)

**Query** Notebook entry, DeltatarO mutant assay: survival of Cc1oc2ncn(CC(C)C)c(=O)c2c1C(=O)Nc1cccc(C(F)(F)F)c1 = ?
**Result** -1% (active)

**Query** Notebook entry, DeltatarO mutant assay: survival of CNC(=S)N(Cc1ccco1)Cc1cc2ccc(C)cc2[nH]c1=O = ?
**Result** 99% (inactive)

**Query** Notebook entry, DeltatarO mutant assay: survival of CCOC(=O)c1c(C)[nH]c(CCC(=O)NCc2cccc(C)c2)c1C = ?
**Result** 70% (inactive)

**Query** Notebook entry, DeltatarO mutant assay: survival of CCOCCc1nnc(NC(=O)C(=O)c2cc(C)n(-c3ccc(Cl)cc3)c2C)s1 = ?
**Result** 60% (inactive)

**Query** Notebook entry, DeltatarO mutant assay: survival of Cc1cc(NC(=O)CSc2nc(-c3ccccc3C)nc3c2c(=O)n(C)c(=O)n3C)no1 = ?
**Result** 67% (inactive)
